Tested on: RSV replicon
Assay: microbe, parasite or virus in culture
Format: cell-based
Settings: human respiratory syncytial virus, read-out: EC50, the concentration of the drug required for reducing RSV replicon RNA by 50%
pEC50: −log10 of the molar value.
quantity_kind: pEC50

Enter reported pEC50 observed with RSV replicon for COc1ccc(C(O)(CO)CNC(=O)c2cc(OC)c3ncccc3c2)nc1-c1ccc(F)c(Cl)c1 (stereo not shown) > 6.00

Let us now turn to COc1cc(C(=O)NCC(O)(c2cc(CN)cc(-c3ccc(F)c(Cl)c3)n2)C(F)(F)F)ccc1OC1CC1 (stereo not shown) > 6.00

Let us now turn to COc1cc(C(=O)NCC(C)(O)c2ccc(OC)c(-c3ccc(F)c(Cl)c3)n2)ccc1-n1cccn1 (stereo not shown) 4.30 to 6.00

Let us now turn to `COc1cc(C(=O)NCC2(c3cccc(-c4csc5c(F)cccc45)n3)COC2)ccc1OCCO` 4.30 to 6.00
